target of assay: AgCyk3
procedure text: SPOT peptide array binding signal intensity (averaged, normalized) (arbitrary units (background-subtracted, floor 0; scale differs between SH3 domains)); higher = stronger binding of the SH3 domain to the peptide
readout: SPOT peptide array binding signal intensity
Give a plain numeric answer without units written out.

Entry SRSKPLPLTPNSKYN ; SPOT peptide array binding signal intensity = 1

Entry RKRRTHLRLPLIRSN ; SPOT peptide array binding signal intensity = 2

Entry NLPKRKPPKLQGPFS ; SPOT peptide array binding signal intensity = 2.5

Entry TKRKRPARLIFYDSK ; SPOT peptide array binding signal intensity = 13.5

Taken from the supplement of paper PMC4466140.
